# System: Wolbachia pipientis
# PROCEDURE SUMMARY: Anti-Wolbachia Cell-Based Screen
# Format: functional
# Design: scale not given: in the data most compounds retested in dose-response had high values
# COND: 5 µM
The whole screen tested about 48,000 compounds, of which about 13,000 (27%) showed an effect of 50% or more. This is one part of the list.
PARAMETER: Percent Effect (%)

>>> df
                             smiles_notation               system       parameter  endpoint_unit  numeric_readout
 0           Cc1ncnc2c1CCN(C(=O)c1cnccn1)CC2  Wolbachia pipientis  Percent Effect              %            1.422
 1  Cc1nc2sccn2c1C(=O)N1CCc2c(nc(N(C)C)[nH]c2=O)C1  Wolbachia pipientis  Percent Effect              %            14.79
 2      CN(C)CC(=O)N1CCc2ncnc(-c3ccoc3)c2CC1  Wolbachia pipientis  Percent Effect              %           -8.225
 3  O=C(c1ccccn1)N1CCc2c(nc(N3CCCC3)[nH]c2=O)C1  Wolbachia pipientis  Percent Effect              %           -8.561
 4          Cc1noc(C)c1CN(C)C(=O)C1(N)CCCCC1  Wolbachia pipientis  Percent Effect              %           -29.06
 5  Cn1cc(-c2ncnc3c2CCN(C(=O)c2cnccn2)CC3)cn1  Wolbachia pipientis  Percent Effect              %              113
 6    COc1ccsc1C(=O)NC1CCN(c2ccc(C#N)cc2)CC1  Wolbachia pipientis  Percent Effect              %           -30.88
 7     COc1ccc(C(=O)NC2CCN(c3ncccn3)CC2)cc1F  Wolbachia pipientis  Percent Effect              %            13.96
 8        CS(=O)(=O)CCC(=O)Nc1cc(Cl)c(Cl)cn1  Wolbachia pipientis  Percent Effect              %           -8.334
 9     CC[C@H](CO)NC(=O)c1coc(COc2ccccc2F)n1  Wolbachia pipientis  Percent Effect              %           -31.99
10  O=C(c1cccnc1)N1CCc2c(nc(N3CCCC3)[nH]c2=O)C1  Wolbachia pipientis  Percent Effect              %            113.8
11         CCOc1ncnc2c1CCN(C(=O)c1cnccn1)CC2  Wolbachia pipientis  Percent Effect              %            5.086

These entries and their values trace back to ChEMBL document CHEMBL3988442.
